# Protocol: yeast display, Sf9 membrane polyspecificity reagent, FACS + sequencing; frameworks hold sequencing errors
Reported property: polyreactivity (PSR sort gate)

Solved cases (5 shown):
{"Biopolymer sequence": "QDQLVESGGGLVQAGGSLRLSCAASGLIFKYNAMGWSRQAPGKERELVADINRSGGSTYYADSVKGRFTISRDNSKNTVSLQMNSLKPEDSAVYDCAAERVSLYWVIFGYWGQGTQVTVSS", "Reported property": "polyreactivity (PSR sort gate)", "Observed": "low polyreactivity"}
{"Biopolymer sequence": "QDQLVESGGGIVQAGGSLRLSCAASGFIFYTYAMGCYRQAPGKESELVAAISSRGTRTYYADSVKGRFTISRDNAKNTVFLQMNSLKPEDTAVYYCAAVSYSYEYPSFDMGYWGQGTQVTVSS", "Reported property": "polyreactivity (PSR sort gate)", "Observed": "high polyreactivity"}
{"Biopolymer sequence": "QVQLVESGGGLVQAGGSLRLSCAASGSTFRFYAMGWYRQAPGKERELVAGITGSGDSTYYADSVKGRFTISRDNAKNTVYLQMNSLKPEDTAVYYCNKRFLFAGFDYLGQGTQVTVSS", "Reported property": "polyreactivity (PSR sort gate)", "Observed": "low polyreactivity"}
{"Biopolymer sequence": "QVQLVESGGGLVQAGGSLRLSCAASGFTFTKYAMGWYRQAPGKERELVAAITSSGGGTYYADSVKGRFTISRDYAKNTVYLQMNRLKPVDTAVYYCARDSRTGYYYWGQGTQVTVSS", "Reported property": "polyreactivity (PSR sort gate)", "Observed": "high polyreactivity"}
{"Biopolymer sequence": "QVQLVESGGGLVQAGGSLRLSCAASGRTFGKYAMGWYRQAPGKERELVATISRSGGSTYYADSVKGRFTISRDNAKNTVYLQMNSLKPEDTAVYYCNAVTSRYIWPPVLDRYHYWGQGTQVTVSS", "Reported property": "polyreactivity (PSR sort gate)", "Observed": "high polyreactivity"}

Each sequence below has a reported value. Please supply its polyreactivity (PSR sort gate).
1. QVQLVESGGGLFQAGGILILSFAASGNTLNYYTMGWYRQAPGKERELVAAISSSGGSTYYAESVKGSFTISRDYAKNTVYLHMNRLKPEDNAVYFCNDSVINEMNNWGQGTQVTVSS
2. QVQLVESGGGLVQAGGSLRLSCAASGSIFSIYAMGWYRQAPGKERELVAAISWNGGSTYYADSVKGRFTISRDNAKNTVYLQMNSLKPEDTAVYYCAVDEGPTKVRFGYWGQGTQVTVSS
3. QVQLVESGGGLVQAGGSLRLSCAASGLTFYTNAMGWYRQAPGKERELVAAITSSGGRTYYADSVKGRFTISRDNAKNTVYLQMNSLKPEDTAVYYCAADARRPSIPEMYYCGQGTQVTVSS

## Result
1. low polyreactivity
2. high polyreactivity
3. high polyreactivity

Record polyreactivity (PSR sort gate) per entry; entries follow.
1. QVQLEESGGGLVQAGGSLRLSCAASGRTFAYYFMGWYRQAPGKERQLVAAISGSGGSTYYADSVKGRFTISRDNAKNTVYLQMNSLKPEDTAVYYCAAQYAYGGYDYWGQGTQVTVSS
2. QVQLVESGGGIVQAGGSLRLSCAASGSTFFSYAMGLYRQAPGKERELVAGIDWNGGDTNYADSVKGRFTISRDNAKNTVYLQMNSLKPEETAVYYCATDYSFPGPFRRRERFDYWGQGTQVTVSS
3. QVQLVESGGGLVQAGGSLRLSCAASGYIFLNYAMGWYRQAPGKEREFVATITSSGGTTYYADSVKGRFTISRDNAKNTVYLQMNSLKPEDTAVYYCNADAGWYDWVYYVGRDYWGQGTQVTVSS

## Result
["high polyreactivity", "low polyreactivity", "low polyreactivity"]

Source: the nanobody polyreactivity screen of Harvey et al. (2022)
